IC50 values for Tyrosine-protein kinase JAK1 (Homo sapiens), compiled from several publications.
Readout type: IC50

Compound: CN(c1ccccc1CNc1nc(-c2cc(F)c(O)cc2CC(F)(F)F)cc2[nH]nc(-n3cccn3)c12)S(C)(=O)=O
Value measured: 0.0329 µM

Compound: CNC(=O)[C@H]1C[C@H](NC(=O)c2nn(C)c3c2CN(c2ncnc4[nH]ccc24)CC3)C1
Value measured: > 2 µM

Compound: CCS(=O)(=O)N1CC(CC#N)(n2cc(-c3nc(Nc4cnn(C(=O)COC)c4)nc4ccsc34)cn2)C1
Value measured: < 0.05 µM

Compound: O=C(O)Cn1cc(Nc2ncc3ccn(CC4CCCC(F)(F)C4)c3n2)cn1 (stereo not shown)
Value measured: < 0.1 µM

Compound: Cn1cc(-c2cc3nccn3c(-c3cnn(C(CC=C(F)F)C4CC4)c3)n2)cn1 (stereo not shown)
Value measured: 0.01 to 0.1 µM

Compound: Cn1nc(C(=O)N[C@H]2C[C@H](C(=O)NS(C)(=O)=O)C2)c2c1CCN(c1ncnc3[nH]ccc13)C2
Value measured: 0.1 to 0.5 µM

Compound: O=C(NCCC1(F)COC1)c1noc2c1CN(c1ncnc3[nH]ccc13)CC2
Value measured: 0.1 to 0.5 µM
